The origin of these recorded values is patent US7323447B2.

Test system: HCV replicon (Renilla luciferase) in HUH-7 cells
Experiment: HCV replicon luciferase reporter assay
Type: cell-based, Hepatitis C virus (strain 1b)
Settings: Huh-7, 96 h, 4 days
Protocol: As a secondary assay, EC50 determinations from the replicon FRET assay were confirmed in a replicon luciferase reporter assay. […] Following 4 days in a 37° C./5% CO2 incubator, cells were analyzed for Renilla Luciferase activity using the Promega Dual-Glo Luciferase Assay System. […] Plates were read on a Packard TopCount NXT using a luminescence program. The percentage inhibition was calculated using the formula below: […] The values were graphed and analyzed using XLfit to obtain the EC50 value.
Measured attribute: EC50 (nM)

{"columns": ["Compound", "Measured attribute", "Quantitative result"],
 "data": [
  ["C=C[C@@H]1C[C@]1(NC(=O)[C@@H]1C[C@@H](OC(=O)N2Cc3cccc(F)c3C2)CN1C(=O)[C@@H](OC(=O)NC(C)(C)C)C(C)(C)C)C(=O)NS(=O)(=O)C1CC1 [Example 56Compound 56]", "EC50", 247]
]}
